# reported pKd; entries follow
molecular target: T1, GPIIb/IIIa (SEQ ID NOs: 23 and 24) (human, UniProt P08514 32-994; P05106 27-716); assay: Bio-Layer Interferometry (OctetRed), monovalent format, yeast-purified Fab; apparent monovalent affinity
T1 construct: also called GPIIb/IIIa complex
T1 sequence (P08514 32-994 limits assumed, chain 1 of 2): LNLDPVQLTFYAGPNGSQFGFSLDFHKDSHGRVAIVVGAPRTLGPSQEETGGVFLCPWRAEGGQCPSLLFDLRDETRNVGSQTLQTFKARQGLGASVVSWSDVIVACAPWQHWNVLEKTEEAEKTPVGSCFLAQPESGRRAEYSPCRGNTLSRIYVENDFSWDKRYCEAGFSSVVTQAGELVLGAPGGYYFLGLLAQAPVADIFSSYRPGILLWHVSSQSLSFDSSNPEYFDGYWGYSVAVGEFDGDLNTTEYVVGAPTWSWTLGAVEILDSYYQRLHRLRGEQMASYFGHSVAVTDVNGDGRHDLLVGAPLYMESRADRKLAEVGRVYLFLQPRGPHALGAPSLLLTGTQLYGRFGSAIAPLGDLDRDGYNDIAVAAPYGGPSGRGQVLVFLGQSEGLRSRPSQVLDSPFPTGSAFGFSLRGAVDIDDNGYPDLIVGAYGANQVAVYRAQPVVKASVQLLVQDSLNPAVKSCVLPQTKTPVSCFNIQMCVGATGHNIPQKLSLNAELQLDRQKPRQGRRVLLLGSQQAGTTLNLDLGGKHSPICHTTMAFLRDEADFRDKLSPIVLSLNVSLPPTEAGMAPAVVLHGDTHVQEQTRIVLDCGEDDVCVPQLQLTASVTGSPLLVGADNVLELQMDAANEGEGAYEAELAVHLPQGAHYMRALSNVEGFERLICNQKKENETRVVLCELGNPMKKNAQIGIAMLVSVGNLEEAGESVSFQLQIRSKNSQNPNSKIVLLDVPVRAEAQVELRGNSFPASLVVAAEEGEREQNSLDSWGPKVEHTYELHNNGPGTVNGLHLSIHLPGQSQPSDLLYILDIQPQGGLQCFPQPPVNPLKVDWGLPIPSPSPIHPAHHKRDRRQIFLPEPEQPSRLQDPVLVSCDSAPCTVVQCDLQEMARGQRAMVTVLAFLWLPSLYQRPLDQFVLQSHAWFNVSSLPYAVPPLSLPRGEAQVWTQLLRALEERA
T1 sequence (P05106 27-716 limits assumed, chain 2 of 2): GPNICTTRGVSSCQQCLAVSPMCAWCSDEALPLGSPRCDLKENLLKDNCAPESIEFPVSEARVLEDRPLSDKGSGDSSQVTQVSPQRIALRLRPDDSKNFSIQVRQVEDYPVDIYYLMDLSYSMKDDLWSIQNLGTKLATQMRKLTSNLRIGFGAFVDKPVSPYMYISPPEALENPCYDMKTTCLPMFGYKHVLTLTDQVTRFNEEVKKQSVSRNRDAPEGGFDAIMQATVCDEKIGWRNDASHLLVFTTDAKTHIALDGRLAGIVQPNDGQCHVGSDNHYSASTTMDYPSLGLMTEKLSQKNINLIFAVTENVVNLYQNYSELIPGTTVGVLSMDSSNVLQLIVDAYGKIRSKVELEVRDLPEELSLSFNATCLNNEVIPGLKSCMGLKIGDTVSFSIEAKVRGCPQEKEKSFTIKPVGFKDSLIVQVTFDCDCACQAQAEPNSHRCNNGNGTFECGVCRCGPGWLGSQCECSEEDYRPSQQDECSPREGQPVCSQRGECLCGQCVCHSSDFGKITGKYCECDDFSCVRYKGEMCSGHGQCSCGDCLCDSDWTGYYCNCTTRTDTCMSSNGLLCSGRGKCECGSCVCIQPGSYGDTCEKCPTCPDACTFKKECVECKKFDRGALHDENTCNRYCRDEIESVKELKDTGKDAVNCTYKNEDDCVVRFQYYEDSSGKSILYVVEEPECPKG
Interpret pKd as the negative base-10 log of the concentration measured in mol/L.

Below, 4 binders whose answers are already recorded.
Task: Give the measured pKd of affinity matured h34D10 Fab VH121/VL0 (Fab, V domains shown, Yeast-purified Fab) VH: EVQLVESGGGLVKPGGSLRLSCAASGFTFSAYAMSWVRQAPGEGLVWVASISSGGTTYYPDSVKRQFTISRDNAKNTLYLQMNSLRAEDTAVYYCTRGGDYGYALDYWGQGTLVTVSS VL: EIVMTQSPATLSVSPGERATLSCRASSSVNYMYWYQQKPGQAPRLLIYYTSNLAPGIPARFSGSGSGTEFTLTISSLQSEDFAVYYCQQFSSSPWTFGQGTKVEIK .
Result: 6.64

Task: Returns the measured pKd for the input binder. Input: affinity matured h34D10 Fab VH114/VL0 (Fab, V domains shown, Yeast-purified Fab) VH: EMQLVESGGGLVKPGGSLRLSCAASGFTFSAYAMSWVRQAPGKGLVWVASISSGGTTYYPDSVKRQFTISRDNAKNTLYLQMNSLRAEDTAVYYCTRGGDYGYALDYWGQGTLVTVSS VL: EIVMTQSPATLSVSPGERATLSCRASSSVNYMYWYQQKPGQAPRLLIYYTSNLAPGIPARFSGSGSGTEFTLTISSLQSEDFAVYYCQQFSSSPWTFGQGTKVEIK
Result: 6.89

Task: May I ask what pKd has been recorded for affinity matured h34D10 Fab VH109/VL0 (Fab, V domains shown, Yeast-purified Fab) VH: EVQLVESGGGLVKPGGSLRLSCAASGFTFSAYAMSWVRQAPGKGLVWVASISSGGTTDYPDSVKRQFTISRDNAKNTLYLQMNSLRAEDTAVYYCTRGGDYGYALDYWGQGTLVTVSS VL: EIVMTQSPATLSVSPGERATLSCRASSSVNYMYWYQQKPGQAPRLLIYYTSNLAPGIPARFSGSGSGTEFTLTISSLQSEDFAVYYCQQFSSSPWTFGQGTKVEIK ?
Result: 6.92

Task: Look at this binder and give its reported pKd. affinity matured h34D10 Fab VH103/VL0 (Fab, V domains shown, Yeast-purified Fab) VH: EVQLVESGGGLVKPGGSLRLSCAASGFTFSAYAMSWVRQAPGKGLVWVASISSGGTTYYPDSVKRQFTISRDNAKNTLYLQVNSLRAEDTAVYYCTRGGDYSYALDYWGQGTLVTVSS VL: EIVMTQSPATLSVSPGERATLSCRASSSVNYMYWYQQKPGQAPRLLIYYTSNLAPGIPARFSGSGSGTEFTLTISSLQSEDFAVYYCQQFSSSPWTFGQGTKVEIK
Result: 7.43

Turning now to a further binder:
Task: If you can, please state the reported pKd value of affinity matured h34D10 Fab VH108/VL0 (Fab, V domains shown, Yeast-purified Fab) VH: EVQLVESGGGLVKPGGSLRLSCAASGFTFSAYAMSWVRQAPGKGLVWVASISSDGTTYYPDSVKRQFTISRDNARNTLYLQMNSLRAEDTAVYYCTRGGDYSYALDYWGQGTLVTVSS VL: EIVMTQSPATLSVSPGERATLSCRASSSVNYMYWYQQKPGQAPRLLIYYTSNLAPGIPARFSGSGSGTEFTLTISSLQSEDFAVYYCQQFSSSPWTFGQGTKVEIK .
Result: 7.31

All values here come from patent US20170355771A1.
